The reported numbers originate from paper PMC6054074.

target: papain (Carica papaya, UniProt P00784); test: chromogenic protease assay (BAPNA, […] nm) after […] min preincubation of DTT-reduced papain with compound; type: biochemical
Sequence (P00784 134-345): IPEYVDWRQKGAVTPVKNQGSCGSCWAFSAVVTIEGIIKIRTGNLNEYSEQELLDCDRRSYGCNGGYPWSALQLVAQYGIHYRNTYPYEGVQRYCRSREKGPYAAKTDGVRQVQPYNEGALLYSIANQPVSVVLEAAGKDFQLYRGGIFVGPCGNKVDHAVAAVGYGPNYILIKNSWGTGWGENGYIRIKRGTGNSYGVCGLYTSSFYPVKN
measurement_name: IC50 (µM)
Quick reminder: number only, in µM, skip the unit.

Short answer for C=CCS[S+]([O-])CC=C (stereo not shown) [compound 1, allicin] : IC50 was 1.2

* * *

target: UniProt:P00784; test: chromogenic protease assay (BAPNA, […] nm) after […] min preincubation of DTT-reduced papain with compound; assay type: biochemical; conditions: read-out: IC50
measurement_name: IC50

CCCCCCc1ccc(CS[S+]([O-])Cc2ccc(CCCCCC)cc2)cc1 (centres unmarked) : 1 µM

As a next step, examine the molecule that follows.
Note to self: IC50 of [O-][S+](Cc1ccccc1)SCc1ccccc1 (centres unmarked) with UniProt:P00784 was 1.1 µM
